# Tested on: SK-OV-3 ovarian
# TEST_METHOD_NOTES: NCI tumour cell line growth inhibition, 48 h; in the data active = GI50 below about 0.43 µM; inactive = the rest
// allowed return values: active, inactive

[[record]]
molecule = "CN1CCCC1c1cccnc1.O=C(O)c1ccccc1O.O=C([O-])c1ccccc1[OH2+].O=C([O-])c1ccccc1[OH2+].O=C([O-])c1ccccc1[OH2+].[Cu+2] (centres undefined)"
qualitative_label = "inactive"


stdin: # lookup: test call for COc1cc(CN[C@H]2CCc3cc(OC)c(OC)c(OC)c3-c3ccc(SC)c(=O)cc32)cc(OC)c1
stdout: active

stdin: # lookup: test call for Oc1ccc(Nc2nc3ccccc3c3occc23)cc1
stdout: inactive

stdin: # lookup: test call for O=C(Nc1cccc(-n2ccc3c(NC(=O)c4ccccc4)nccc32)c1)Nc1ccc(Cl)c(C(F)(F)F)c1
stdout: active

stdin: # lookup: test call for C=CCn1c(SCC(=O)Nc2ccc(C(=O)/C=C/c3cc(OC)c(OC)c(OC)c3)cc2)nnc1-c1ccc(Cl)cc1
stdout: inactive

stdin: # lookup: test call for COc1ncc(-c2ccc3nccc(C#CCCCCC(=O)O)c3c2)cc1NS(=O)(=O)c1ccc(F)cc1F
stdout: active

stdin: # lookup: test call for CNC(=O)C(CCc1ccccc1)NC(=O)C(CC(=O)NO)CC(C)C (centres undefined)
stdout: inactive

stdin: # lookup: test call for COc1cccc2c1C(=O)c1c(O)c3c(c(O)c1C2=O)CC(O)(/C(C)=N/NC(=O)CCCCC(=O)N/N=C(\C)C1(O)Cc2c(O)c4c(c(O)c2C(OC2CC(N)C(O)C(C)O2)C1)C(=O)c1c(OC)cccc1C4=O)CC3OC1CC(N)C(O)C(C)O1 (centres undefined)
stdout: active

stdin: # lookup: test call for O=C1NC(=O)/C(=C/c2c(Cl)nc3sccn23)S1
stdout: inactive

---

# System: RXF 393 renal
# TEST_METHOD_NOTES: NCI tumour cell line growth inhibition, 48 h
Give measured GI50 for each item. Keep answers brief.

[[record]]
compound = "O=C1C(Cl)=C(Nc2cccc(O)c2)C(=O)N1CCc1ccccc1"
reported_measurement = "25.9 µM"


Each compound below has a reported value. Please supply its GI50.
1. CCOC(=O)c1c(NC(=O)COc2cccc3cccnc23)sc(C(=O)N(C)C)c1C
2. COC(=O)C1=C(OC(=O)c2ccccc2)C(C(=O)OC)[C@]2(O)[C@@H](C(=O)OC)C1CC(c1ccccc1OC)[C@@H]2C(=O)OC (stereo partly drawn)

stdout:
13 µM
2.53 µM

---

Give measured TGI for each item. Keep answers brief.
# Tested on: OVCAR-4 ovarian
# TEST_METHOD_NOTES: NCI tumour cell line growth inhibition, 48 h
*1 amine or outer side, *2 acyl side, *3 side chain or, on linkers, in order; H or OH if unused. Where a SMILES comes first, the peptide text is derived from it. [ ]: non-standard residue; d: D form. ξ: configuration not given here. Ile(3ξ) = CCC(C)[C@H](N)C(=O)O; X33 = C=CCC(O[*:1])C(=O)[*:2]; NMeV = CN[C@H](C(=O)O)C(C)C; NMeA = CN[C@@H](C)C(=O)O; βAla = NCCC(=O)O

Study these solved cases before continuing.
[[record]]
compound = "C=CCC1OC(=O)CCNC(=O)[C@H](C)N(C)C(=O)[C@H](C(C)C)N(C)C(=O)[C@H](C(C)CC)NC(=O)[C@@H]2CCCN2C1=O (some centres undefined) (cyclo([Ile(3ξ)][NMeV][NMeA][βAla][X33]P))"
measured_metric = "TGI"
reported_measurement = "> 100 µM"

[[record]]
compound = "O=C1c2ccccc2-c2ccccc2C(=O)C1(Br)Br"
measured_metric = "TGI"
reported_measurement = "26.7 µM"

[[record]]
compound = "CCCCc1c2c(nc3c1CCCC3=O)C(=O)CCC2"
measured_metric = "TGI"
reported_measurement = "> 100 µM"

[[record]]
compound = "O=C(c1ccc(Cl)cc1Cl)N(/N=C/C=C/c1ccccc1)c1nnc(-c2ccccc2)c(-c2ccccc2)n1"
measured_metric = "TGI"
reported_measurement = "> 100 µM"


Each compound below has a reported value. Please supply its TGI.
1. COC(=O)C1=C(OC(=O)c2ccccc2)C(C(=O)OC)[C@]2(O)[C@@H](C(=O)OC)C1CC(c1ccccc1OC)[C@@H]2C(=O)OC (some centres undefined)
2. O=C1NC2c3c(I)sc(I)c3/C(=N\O)C2O1 (centres undefined)
3. CCOC(=O)c1c(NC(=O)COc2cccc3cccnc23)sc(C(=O)N(C)C)c1C
4. COC(=O)Cc1cccc2c1CCC2=O
5. Cc1cc(-n2c(/C=C/c3ccc(Cl)cc3)nc3cc(Cl)ccc3c2=O)on1
6. N#Cc1c2c(c(Cl)n3c1nc1ccccc13)CCCC2
7. NCCc1c[nH]c2ccc(OC(=O)C(=O)O)cc12

stdout:
> 100 µM
89.8 µM
65.8 µM
> 100 µM
4.05 µM
16.7 µM
> 100 µM

Each compound below has a reported value. Please supply its TGI.
1. CNc1ccc(/C=C2\C=Cc3ccccc32)cc1
2. COc1ccc(-c2csc(-n3c(-c4ccccc4)nc4c(Br)cc(Br)cc4c3=O)n2)cc1
3. Cn1c(=O)n(CCCO)c(=O)c2c1nc(Oc1cccc(OC(F)(F)F)c1)n2Cc1ccc(Cl)cc1
4. C[C@]12CC[C@H](O)CC1=CC[C@@H]1C2CC[C@]2(C)c3n[nH]nc3CC12 (some centres undefined)
5. COc1ccc(S(=O)Cc2cc(OC)c(OC)c(OC)c2)cc1 (centres undefined)
6. COc1ccc2c(c1)oc1c(C)c3c(c(C)c12)C(=O)N(N)C3=O

stdout:
> 100 µM
> 100 µM
30.4 µM
> 100 µM
> 100 µM
> 100 µM

Each compound below has a reported value. Please supply its TGI.
1. C[n+]1cn(C2=C([O-])c3ccccc3C(=O)/C2=N\S(=O)(=O)c2ccccc2)c2ccccc21
2. O=C(Nc1cccc(-n2ccc3c(NC(=O)c4ccccc4)nccc32)c1)Nc1ccc(Cl)c(C(F)(F)F)c1
3. O=c1c2c([nH]c3ccccc13)CCCC2
4. Cc1cccc(C(C)(C)C)c1NC(=O)CCl
5. c1cc(-c2ccc(-c3ccc(-c4ccc(-c5cccc6nsnc56)[nH]4)c4nsnc34)[nH]2)c2nsnc2c1
6. O=C1c2ccccc2C(=O)N1C/C=N/NS(=O)(=O)c1ccc(F)cc1
7. COC(=O)C1Cc2c([nH]c3ccccc23)C(C2CCCCC2)N1 (centres undefined)
8. Cc1cccc2c1CC(C1OC(=O)c3ccccc31)C2=O (centres undefined)

stdout:
["37.8 µM", "> 100 µM", "> 100 µM", "> 100 µM", "> 100 µM", "> 100 µM", "> 100 µM", "> 100 µM"]

Each compound below has a reported value. Please supply its TGI.
1. O=c1[nH][nH]c(=O)n1Cc1cccc(Cn2c(=O)[nH][nH]c2=O)c1
2. CC1(F)C=CC(=O)C=C1
3. C=C1C(=O)O[C@H]2[C@H]1CC/C(CNC(=O)c1cccc3ccccc13)=C\CC[C@@]1(C)O[C@@H]21
4. CN(NC(=O)/C(=C/c1ccc(Cl)cc1)NC(=O)c1ccccc1)c1cn[nH]c(=O)c1Cl

stdout:
["> 100 µM", "> 100 µM", "8 µM", "> 100 µM"]

Each compound below has a reported value. Please supply its TGI.
1. COc1cc(/C=C/C(=O)c2ccc(Nc3nc(Nc4ccc(F)cc4)nc(Nc4ccc(Cl)cc4)n3)cc2)cc(OC)c1OC
2. C=C1C(=O)O[C@@H]2O[C@@]3(C)CC[C@H]4[C@H](C)CC[C@@H]1[C@@]24O3
3. Sc1ccccc1S
4. CN(C)c1[se]nc2c1c(=O)n(C)c(=O)n2C
5. Nc1ccccc1C#C/C=C\C#Cc1cnccn1

stdout:
1. > 100 µM
2. 36.3 µM
3. > 100 µM
4. > 100 µM
5. > 100 µM

---

# Tested on: IGROV1 ovarian
# TEST_METHOD_NOTES: NCI tumour cell line growth inhibition, 48 h
MEASURED_METRIC: TGI

[[record]]
compound = "N#Cc1c(-c2ccc([N+](=O)[O-])cc2)cc(-c2ccc(Nc3ccnc4cc(C(F)(F)F)ccc34)cc2)[nH]c1=O"
system = "IGROV1 ovarian"
reported_measurement = "> 100 µM"

[[record]]
compound = "COc1ccc(C2/C(=C(\\O)c3ccccc3)C(=O)C(O)(CC(=O)c3ccccc3)N2c2ccc(OC)cc2)cc1 (stereo not given)"
system = "IGROV1 ovarian"
reported_measurement = "> 77.7 µM"


Each compound below has a reported value. Please supply its TGI.
1. COC(=O)C1(NC(=O)C(CC(=O)OCc2ccccc2)NC(=O)OCc2ccccc2)CCCCCCC1 (stereo not given)
2. C=C1c2c(C)nn(-c3ccc(OC)cc3)c2N(C)C23C[C@@H]1C1(C)c4c(C)nn(-c5ccc(OC)cc5)c4N(C)C(C)(C[C@H]12)C3 (stereo not given in full)
3. C=CCn1c(SCC(=O)Nc2ccc(C(=O)/C=C/c3cc(OC)c(OC)c(OC)c3)cc2)nnc1-c1ccc(Cl)cc1
4. C=C1C(=O)O[C@H]2[C@H]1CC/C(CNC(=O)c1cccc3ccccc13)=C\CC[C@@]1(C)O[C@@H]21
5. c1ccc(NNC2=NCCN2)cc1

stdout:
1: > 100 µM; 2: > 100 µM; 3: 13 µM; 4: 3.86 µM; 5: > 100 µM
